experiment: Induction of apoptosis in human HUVEC assessed as cell viability at 0.001 to 10 uM after 18 hrs using Annexin-V and 7-amino-actinomycin-D staining by flow fluorocytometry analysis; format: cell-based; settings: HUVEC cells, read-out: Activity
property label: viability at 18 h, up to 10 µM
Form field: result (number plus unit)

[Q] Could you share which viability at 18 h, up to 10 µM value was measured for COc1ccc(-c2ccc(S(=O)(=O)N(OC(C)C)[C@H](CCN3C(=O)c4ccccc4C3=O)C(=O)NO)cc2)cc1 ?
[A] 85%

Source: ChEMBL document CHEMBL3616369
